Every entry's value here was drawn from PubChem BioAssay (NCI).

test system: SN12C renal; test: NCI tumour cell line growth inhibition, 48 h
readout name: TGI

Worked cases, TGI given:
{"compound": "CN(C)Cc1cc(C(=O)/C=C/c2ccc(Br)cc2)cc(CN(C)C)c1O", "TGI": "14.8 µM"}
{"compound": "CCN1/C(=C/C=C/C=C/c2sc3ccccc3[n+]2CC)Sc2ccccc21", "TGI": "1.76 µM"}

IN: TGI lookup needed for `COc1cc(CNc2nc3ccccc3n2Cc2ccccc2)cc(CN2CCOCC2)c1O` , thanks.
OUT: > 100 µM

====

test system: SNB-75 CNS; assay: NCI tumour cell line growth inhibition, 48 h; in the data active means GI50 below about 0.43 µM; inactive means the rest
// one of active, inactive, no free text

Here are 2 molecules together with their reported answers.
{"molecule": "COc1ccc2c(c1)C(=O)c1c-2c(OCCN(C)C)nc2cc(OC)ccc12", "group label": "inactive"}
{"molecule": "COc1cc(CNc2nc3cc(N)cc(N)c3nc2-c2ccccc2)cc(OC)c1OC", "group label": "inactive"}

IN: Hi, do you know how `COc1cc(-c2nc3ccccc3[nH]2)ccc1OCC(=O)N=Nc1c(O)[nH]c2ccc(Cl)cc12` came out in this test?
OUT: inactive

IN: Here is the next molecule: COc1cc(/C=C2\CCCC3C2=Nc2ccccc2NC3c2cc(OC)c(OC)c(OC)c2)cc(OC)c1OC (centres undefined)
OUT: inactive

IN: Here is the next molecule: `COc1ccccc1-c1ccc2nc(NC(=O)Nc3cc(C(F)(F)F)cc(C(F)(F)F)c3)sc2c1`
OUT: inactive

IN: Here is the next molecule: `O=C(C[C@@]1(O)C(=O)Nc2c(Cl)ccc(Cl)c21)c1ccc(C2CC2)cc1`
OUT: active

IN: Here is the next molecule: `COc1cc(-c2cc(-c3nc4cc(Cl)c(Cl)cc4[nH]3)[nH]n2)cc(OC)c1OC`
OUT: inactive

IN: Here is the next molecule: `O=c1c2[nH]c3ccccc3c2nc2n1CCS2`
OUT: inactive

IN: Here is the next molecule: `N=C(N)c1ccc(-c2ccc(-c3cncc4ccccc34)s2)cc1F`
OUT: inactive

====

test system: COLO 205 colon; test: NCI tumour cell line growth inhibition, 48 h; in the data active means GI50 below about 0.43 µM; inactive means the rest
// one of y for active, n for inactive, no free text

Here are 8 molecules together with their reported answers.
{"molecule": "COc1ccccc1-c1ccc2nc(NC(=O)Nc3cc(C(F)(F)F)cc(C(F)(F)F)c3)sc2c1", "system": "COLO 205 colon", "group label": "n"}
{"molecule": "COc1ccc2c(O)c(/C=C3\\N=Nc4ncccc43)oc2c1C[C@H]1CCNC[C@H]1F", "system": "COLO 205 colon", "group label": "y"}
{"molecule": "Cc1c2cnccc2c(C)c2c1c1cc(C(=O)O)ccc1n2C", "system": "COLO 205 colon", "group label": "n"}
{"molecule": "COc1cc(OC)cc(-c2ccc(-c3ccc(C(=N)N)s3)s2)c1", "system": "COLO 205 colon", "group label": "y"}
{"molecule": "Fc1c[c-]c(-c2ccccn2)c(F)c1.[CH3-].[Pt+2].c1ccc([PH+](c2ccccc2)c2ccccn2)cc1", "system": "COLO 205 colon", "group label": "n"}
{"molecule": "CN1C(=O)N(C)C2C1NN=c1s/c(=C\\c3c[nH]c4ccccc34)c(=O)n12 (centres undefined)", "system": "COLO 205 colon", "group label": "y"}
{"molecule": "NC(=O)c1ccc2nc(-c3ccc(C4(N)CCC4)cc3)c(-c3ccccc3)n2n1", "system": "COLO 205 colon", "group label": "n"}
{"molecule": "COc1cc(CNc2nc3cc(N)cc(N)c3nc2-c2ccccc2)cc(OC)c1OC", "system": "COLO 205 colon", "group label": "n"}

IN: Hi, do you know how `COc1nc2c(cc1S(=O)(=O)c1ccccc1)CCc1c-2cnn1Cc1ccccc1` came out in this test?
OUT: n

====

tested on: MALME-3M melanoma; experiment: NCI tumour cell line growth inhibition, 48 h
Where a SMILES comes first, the peptide text is derived from it. The star is where a group is joined. Boc = CC(C)(C)OC(=O)*
readout name: TGI

{"compound": "CCN(CC)CCSc1n[nH]c(-c2c[nH]c3nc(C)ccc3c2=O)n1", "readout value": "> 100 µM"}
{"compound": "COC(=O)C(Cc1c[nH]c2ccccc12)NC(=O)C(Cc1c[nH]c2ccccc12)NC(=O)C(Cc1c[nH]c2ccccc12)NC(=O)OC(C)(C)C (stereo not drawn) (Boc-Trp-Trp-Trp-OMe; configuration not given here)", "readout value": "> 100 µM"}
{"compound": "CC(N)(Cc1c[nH]c2ccccc12)C(=O)O (stereo not given)", "readout value": "> 2500 µM"}
{"compound": "c1cc2[nH]snc2c2cncc12", "readout value": "> 100 µM"}

IN: TGI lookup needed for C=C1CC23CCC4C(C)(C(=O)O)CCCC4(C)C2CCC1C3 (stereo not given) , thanks.
OUT: > 100 µM

IN: Here is the next compound: `CN(C)C(=S)/N=c1\ssc(=S)n1-c1ccccc1`
OUT: 31 µM

IN: Here is the next compound: `O=C(CSc1nnc(Cc2ccccc2)o1)Nc1ccccc1Cl`
OUT: > 100 µM

====

system: TK-10 renal; test: NCI tumour cell line growth inhibition, 48 h
readout name: TGI (µM)
Could you give me the number in µM? Just the number is fine.

{"compound": "Cc1cc(O)c(C2=NN(c3ccc(S(N)(=O)=O)cc3)C(c3ccccc3O)C2)cc1Cl (stereo not drawn)", "TGI [µM]": 7.32}
{"compound": "O=S(=O)(O)c1cc(N=Nc2cc(S(=O)(=O)O)c3ccccc3c2O)ccc1/C=C/c1ccc(N=Nc2cc(S(=O)(=O)O)c3ccccc3c2O)cc1S(=O)(=O)O", "TGI [µM]": 220}
{"compound": "COc1cc(/C=C2\\CCCC3C2=Nc2ccccc2NC3c2cc(OC)c(OC)c(OC)c2)cc(OC)c1OC (stereo not drawn)", "TGI [µM]": 17.7}

IN: TGI lookup needed for `Cc1cc(Nc2cc(CN3CCOCC3)c3nc(C)c(Cc4ccc(Cl)cc4F)n3n2)n[nH]1` , thanks.
OUT: 6.61

IN: Here is the next compound: `CC(=O)c1cccc(Nc2c3ccccc3nc3occc23)c1`
OUT: 94.1

IN: Here is the next compound: C=C(C)C1CC2=C(O1)C(=O)c1ccccc1C2=O (stereo not drawn)
OUT: 46.3

IN: Here is the next compound: `CCOC(=O)c1ccc(NC(=O)O/N=C(/Cl)C(C)C)cc1`
OUT: 33.5

IN: Here is the next compound: `Cc1cc(C)c(S(=O)(=O)N(CCCCCCN)OCCCN)c(C)c1`
OUT: 29.4

IN: Here is the next compound: CCCCCCCCCCCCOC1C(CNCC2OC3OC(C)(C)OC3C2NC(=O)Nc2ccc(C(F)(F)F)cc2)OC2OC(C)(C)OC21 (stereo not drawn)
OUT: 7.86

IN: Here is the next compound: CCN1CCC2(CC1)NC(=O)c1c(c3ccc(Cl)c(Cl)c3n1C)C2C#N (stereo not drawn)
OUT: 5.38

====

system: OVCAR-8 ovarian; assay: NCI tumour cell line growth inhibition, 48 h
readout name: TGI

{"compound": "C[n+]1c2ccccc2c(C(=O)NC(CCCN=C(N)N)C(=O)O)c2ccccc21 (stereo unspecified)", "TGI": "> 100 µM"}
{"compound": "CN(C)Cc1cc(C(=O)/C=C/c2ccc(Br)cc2)cc(CN(C)C)c1O", "TGI": "20.8 µM"}
{"compound": "CN(C)C(=S)/N=c1\\ssc(=S)n1-c1ccccc1", "TGI": "28.5 µM"}
{"compound": "C/C=C/C(=O)[C@@H](O)C(C)C", "TGI": "> 100 µM"}
{"compound": "CS(=O)(=O)N1CC(CCl)c2ccc(NCCN)cc21 (stereo unspecified)", "TGI": "> 100 µM"}

Consider now this further compound.
IN: TGI lookup needed for `C=CCOc1ccc(C2(c3ccc(OCC=C)cc3)C(=O)Nc3ccccc32)cc1` , thanks.
OUT: > 10 µM

====

system: NCI-H23 lung; assay: NCI tumour cell line growth inhibition, 48 h; in the data active = GI50 below about 0.43 µM; inactive = the rest
// one of True = active, False = inactive, no free text

Here are 3 compounds together with their reported answers.
{"compound": "C[n+]1c2cc(N)ccc2cc2ccc(N)cc21 (tested in a mixture with another compound)", "system": "NCI-H23 lung", "group label": "True"}
{"compound": "COc1cc(-c2nc3ccccc3[nH]2)ccc1OCC(=O)N=Nc1c(O)[nH]c2ccc(Cl)cc12", "system": "NCI-H23 lung", "group label": "False"}
{"compound": "CC(N)(Cc1c[nH]c2ccccc12)C(=O)O (stereo not drawn)", "system": "NCI-H23 lung", "group label": "False"}

Now consider a different compound.
IN: Hi, do you know how `COc1ccccc1-c1ccc2nc(NC(=O)Nc3cc(C(F)(F)F)cc(C(F)(F)F)c3)sc2c1` came out in this test?
OUT: False
